pIC50 values, listed per item
TARGET OR TEST SYSTEM: human NaV 1.7 (Homo sapiens)
ASSAY NOTES: E-VIPR optical membrane potential assay with electrical stimulation
COND: sodium channel inhibition; read-out: Binned Activity Data (IC50)
pIC50: −log10 of the molar value.

Field: example entries. Status: answers known.
COc1cc(C(=O)N2CCC3(CC2)Oc2cc(Cl)ccc2-n2cccc23)ccc1OC[C@H]1COC(C)(C)O1 : ≥ 5.70
COc1cc(C(=O)N2CCC3(CC2)Oc2cc(Cl)ccc2-n2cccc23)ccc1OC1CCC(O)C1 (stereo not shown) : ≥ 5.70
Cc1cc(C(=O)N2CCC3(CC2)Oc2cccc(F)c2-n2c(C#N)ccc23)ccc1OC(C)C : ≥ 5.70

Inquiry: pIC50 lookup needed for Cc1cc(C(=O)N2CCC3(CC2)Oc2ccccc2-n2c(CN)ccc23)ccc1OC(C)C , thanks.
Reply text: 5.30 to 5.70

====

TARGET OR TEST SYSTEM: human NaV 1.7 (Homo sapiens)
ASSAY NOTES: E-VIPR optical membrane potential assay with electrical stimulation
COND: sodium channel inhibition; read-out: Binned Activity Data (IC50)
Excerpt: Assays for Detecting and Measuring NaV Inhibition Properties of Compound E-VIPR Optical Membrane Potential Assay Method with Electrical Stimulation Sodium channels are voltage-dependent proteins that can be activated by inducing membrane voltage changes by applying electric fields. The electrical stimulation instrument and methods of use are described in Ion Channel Assay Methods PCT/US01/21652, herein incorporated by reference and are referred to as E-VIPR. […] 7) Read Plate on E-VIPR. […]
MEASUREMENT NAME: IC50

Field: example entries. Status: answers known.
CC(C)S(=O)(=O)c1ccc(C(=O)N2CCC3(CC2)Oc2ccccc2-c2c3cnn2C)cc1 [Compound 613] : ≤ 2000 nM
CC(=O)NCc1ccc2n1-c1ccccc1OC21CCN(C(=O)c2ccc(OC(C)C)c(C)c2)CC1 [Compound 514] : ≤ 2000 nM
Cc1nc2cccc(C(=O)N3CCC4(CC3)Oc3ccccc3-c3c4cnn3C)c2o1 [Compound 224] : ≤ 2000 nM
Cn1ncc2c1-c1ccccc1OC21CCN(C(=O)c2ccc3[nH]ncc3c2)CC1 [Compound 444] : > 5000 nM
CC(C)Oc1ccc(C(=O)N2CCC3(CC2)Oc2ccccc2-n2c(C(F)(F)F)ccc23)nc1 [Compound 36] : ≤ 2000 nM
O=C(c1ccccc1O)N1CCC2(CC1)Oc1cc(Cl)ccc1-n1cccc12 [Compound 790] : ≤ 2000 nM

Inquiry: IC50 lookup needed for Cc1nc2c(C(=O)N3CCC4(CC3)Oc3ccccc3-c3c4cnn3C)cccc2[nH]1 [Compound 92] , thanks.
Reply text: 2000 to 5000 nM

Inquiry: IC50 lookup needed for COc1ccc(C(=O)N2CCC3(CC2)Oc2ccccc2-n2c(C(F)(F)F)ccc23)cc1C [Compound 884] , thanks.
Reply text: ≤ 2000 nM

Inquiry: IC50 lookup needed for COc1cc(C(=O)N2CCC3(CC2)Oc2ccccc2-n2cccc23)ccc1OCCC(C)C [Compound 602] , thanks.
Reply text: ≤ 2000 nM

Inquiry: IC50 lookup needed for COc1cccc(F)c1C(=O)N1CCC2(CC1)Oc1cc(Cl)ccc1-n1cccc12 [Compound 739] , thanks.
Reply text: ≤ 2000 nM

Inquiry: IC50 lookup needed for CC(C)(Oc1ccc(C(=O)N2CCC3(CC2)Oc2ccccc2-n2c(C#N)ccc23)cc1)C(=O)O [Compound 334] , thanks.
Reply text: > 5000 nM

Inquiry: IC50 lookup needed for CC(C)(O)c1ccc(C(=O)N2CCC3(CC2)Oc2ccccc2-n2c(C(F)(F)F)ccc23)cc1 [Compound 722] , thanks.
Reply text: ≤ 2000 nM

Inquiry: IC50 lookup needed for COc1cc(C(=O)N2CCC3(CC2)Oc2ccccc2-n2cccc23)ccc1OC(C)(C)C#N [Compound 570] , thanks.
Reply text: ≤ 2000 nM

Inquiry: IC50 lookup needed for COCCOc1ccc(C(=O)N2CCC3(CC2)Oc2ccccc2-c2c3cnn2CCOC)cc1OC [Compound 469] , thanks.
Reply text: 2000 to 5000 nM

Inquiry: IC50 lookup needed for CC(C)S(=O)(=O)c1ccc(C(=O)N2CCC3(CC2)Oc2ccccc2-n2c(F)ccc23)cc1 [Compound 508] , thanks.
Reply text: ≤ 2000 nM

Inquiry: IC50 lookup needed for COCCOc1cc(F)c(C(=O)N2CCC3(CC2)Oc2ccccc2-n2cccc23)cc1OC [Compound 532] , thanks.
Reply text: ≤ 2000 nM

====

TARGET OR TEST SYSTEM: human NaV 1.7 (Homo sapiens, UniProt Q15858)
Sequence (Q15858 whole entry): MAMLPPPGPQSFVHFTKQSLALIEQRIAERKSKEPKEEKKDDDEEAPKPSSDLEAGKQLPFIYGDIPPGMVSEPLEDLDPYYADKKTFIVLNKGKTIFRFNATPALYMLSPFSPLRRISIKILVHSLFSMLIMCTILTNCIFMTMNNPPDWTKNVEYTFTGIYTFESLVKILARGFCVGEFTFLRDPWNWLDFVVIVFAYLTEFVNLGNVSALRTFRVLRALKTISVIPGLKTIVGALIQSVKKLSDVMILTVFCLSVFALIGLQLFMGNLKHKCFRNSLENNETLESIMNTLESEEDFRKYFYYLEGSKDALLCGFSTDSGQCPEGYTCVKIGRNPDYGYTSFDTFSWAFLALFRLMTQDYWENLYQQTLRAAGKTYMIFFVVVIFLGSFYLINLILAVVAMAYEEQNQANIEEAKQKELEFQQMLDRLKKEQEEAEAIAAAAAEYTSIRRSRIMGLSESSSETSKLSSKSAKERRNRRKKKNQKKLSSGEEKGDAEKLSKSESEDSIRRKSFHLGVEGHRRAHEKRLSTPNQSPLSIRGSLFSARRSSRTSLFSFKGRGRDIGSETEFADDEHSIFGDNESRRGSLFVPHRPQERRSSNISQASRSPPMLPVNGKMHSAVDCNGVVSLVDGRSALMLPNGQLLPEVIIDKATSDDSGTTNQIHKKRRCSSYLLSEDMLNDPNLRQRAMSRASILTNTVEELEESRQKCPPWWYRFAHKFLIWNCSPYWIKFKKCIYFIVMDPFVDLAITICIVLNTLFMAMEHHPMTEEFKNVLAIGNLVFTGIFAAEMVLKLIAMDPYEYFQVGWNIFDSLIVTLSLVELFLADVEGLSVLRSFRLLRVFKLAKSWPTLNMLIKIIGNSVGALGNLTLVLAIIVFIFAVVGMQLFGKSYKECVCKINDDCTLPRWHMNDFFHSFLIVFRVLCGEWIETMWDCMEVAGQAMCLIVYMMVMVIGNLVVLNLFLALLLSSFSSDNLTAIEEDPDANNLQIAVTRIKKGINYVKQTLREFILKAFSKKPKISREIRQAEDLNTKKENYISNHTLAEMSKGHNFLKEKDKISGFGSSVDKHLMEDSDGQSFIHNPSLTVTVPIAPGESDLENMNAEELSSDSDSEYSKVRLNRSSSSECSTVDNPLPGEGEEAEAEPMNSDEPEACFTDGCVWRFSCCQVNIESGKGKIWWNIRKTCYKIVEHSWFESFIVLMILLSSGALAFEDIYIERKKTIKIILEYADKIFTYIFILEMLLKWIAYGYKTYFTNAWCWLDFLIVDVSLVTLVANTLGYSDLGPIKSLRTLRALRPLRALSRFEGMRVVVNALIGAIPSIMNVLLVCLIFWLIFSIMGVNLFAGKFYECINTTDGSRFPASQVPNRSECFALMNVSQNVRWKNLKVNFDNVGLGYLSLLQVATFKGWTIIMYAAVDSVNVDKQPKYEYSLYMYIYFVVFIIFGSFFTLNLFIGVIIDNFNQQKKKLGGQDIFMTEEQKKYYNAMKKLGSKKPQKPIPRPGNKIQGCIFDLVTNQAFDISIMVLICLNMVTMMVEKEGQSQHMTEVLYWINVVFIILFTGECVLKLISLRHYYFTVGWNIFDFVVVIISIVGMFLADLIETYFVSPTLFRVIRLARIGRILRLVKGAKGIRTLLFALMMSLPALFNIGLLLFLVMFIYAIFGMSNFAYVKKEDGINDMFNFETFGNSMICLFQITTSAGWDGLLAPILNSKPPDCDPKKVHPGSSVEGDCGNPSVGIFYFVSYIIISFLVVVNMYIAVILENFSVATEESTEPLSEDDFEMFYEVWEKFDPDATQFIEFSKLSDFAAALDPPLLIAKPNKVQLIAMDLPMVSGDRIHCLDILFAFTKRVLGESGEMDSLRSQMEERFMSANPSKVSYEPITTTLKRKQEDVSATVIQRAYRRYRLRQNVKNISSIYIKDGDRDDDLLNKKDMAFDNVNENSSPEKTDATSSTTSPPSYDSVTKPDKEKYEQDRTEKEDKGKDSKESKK
ASSAY NOTES: E-VIPR optical membrane potential assay with electrical stimulation
COND: sodium channel inhibition; read-out: Binned Activity Data (IC50)
MEASUREMENT NAME: IC50

Field: example entries. Status: answers known.
COc1cc(C(=O)N2CCC3(CC2)Oc2ccccc2-c2c3cnn2C)ccc1OCC(N)=O : > 5000 nM
COc1cc(OC(C)C)ccc1C(=O)N1CCC2(CC1)Oc1ccccc1-c1c2cnn1C : ≤ 2000 nM
COc1cc(C(=O)N2CCC3(CC2)Oc2cc(Cl)ccc2-n2cccc23)ccc1CCO : ≤ 2000 nM
Cn1c(C(=O)N2CCC3(CC2)Oc2cc(Cl)ccc2-n2cccc23)cccc1=O : 2000 to 5000 nM
COc1cc(C(=O)N2CCC3(CC2)Oc2ccccc2-n2cccc23)ccc1O[C@@H]1CCC[C@H]1O : ≤ 2000 nM
CC(C)(O)c1ccc(C(=O)N2CCC3(CC2)Oc2ccccc2-n2c(C#N)ccc23)cc1CO : ≤ 2000 nM
CC(C)(N)c1ccc(C(=O)N2CCC3(CC2)Oc2ccccc2-n2c(C#N)ccc23)cc1 : 2000 to 5000 nM
O=C(c1ccc(C(O)C2CC2)cc1)N1CCC2(CC1)Oc1ccccc1-n1c(C(F)(F)F)ccc12 (stereo not shown) : ≤ 2000 nM

Inquiry: IC50 lookup needed for COCCOc1cc(F)c(C(=O)N2CCC3(CC2)Oc2cc(Cl)ccc2-n2cccc23)cc1OC , thanks.
Reply text: ≤ 2000 nM

Inquiry: IC50 lookup needed for COc1cc(C(=O)N2CCC3(CC2)Oc2cccnc2-n2cccc23)ccc1O[C@@H]1CCOC1 , thanks.
Reply text: ≤ 2000 nM

====

TARGET OR TEST SYSTEM: human NaV 1.7 (Homo sapiens, UniProt Q15858)
ASSAY NOTES: E-VIPR optical membrane potential assay with electrical stimulation
COND: sodium channel inhibition; read-out: Binned Activity Data (IC50)
IC50 values, listed per item

Inquiry: IC50 lookup needed for Cc1cc(C(=O)N2CCC3(CC2)Oc2ccccc2-n2c(C#N)ccc23)ccc1OCC(=O)O , thanks.
Reply text: 2 to 5 µM

Inquiry: IC50 lookup needed for CCCOc1ccc(C(=O)N2CCC3(CC2)Oc2ccccc2-c2c3cnn2C)cc1C , thanks.
Reply text: ≤ 2 µM

Inquiry: IC50 lookup needed for Cc1cc(C(=O)N2CCC3(CC2)Oc2ccccc2-c2c3cnn2C)ccc1OC(C)C , thanks.
Reply text: ≤ 2 µM

Inquiry: IC50 lookup needed for CCS(=O)(=O)c1ccc(C(=O)N2CCC3(CC2)Oc2ccccc2-c2c3cnn2C)cc1 , thanks.
Reply text: 2 to 5 µM

====

TARGET OR TEST SYSTEM: human NaV 1.7 (Homo sapiens, UniProt Q15858)
ASSAY NOTES: E-VIPR optical membrane potential assay with electrical stimulation
COND: sodium channel inhibition; read-out: Binned Activity Data (IC50)
pIC50: −log10 of the molar value.
pIC50 values, listed per item

Cc1cc(C(=O)N2CCC3(CC2)Oc2ccccc2-n2c(C#N)ccc23)ccc1S(=O)(=O)C(C)C : ≥ 5.70
C[C@](O)(CO)c1ccc(C(=O)N2CCC3(CC2)Oc2ccccc2-n2c(C#N)ccc23)cc1 : ≥ 5.70
Cn1ncc2c1-c1ccccc1OC21CCN(C(=O)c2ccc(OC3COC3)c(F)c2)CC1 : < 5.30
Cn1cccc(C(=O)N2CCC3(CC2)Oc2cc(Cl)ccc2-n2cccc23)c1=O : ≥ 5.70
CC(C)(CO)c1ccc(C(=O)N2CCC3(CC2)Oc2ccccc2-n2c(C#N)ccc23)cc1 : ≥ 5.70
CC(C)NC(=O)c1ccc(C(=O)N2CCC3(CC2)Oc2ccccc2-c2c3cnn2C)cc1 : < 5.30

Inquiry: pIC50 lookup needed for CC(C)Oc1ccccc1C(=O)N1CCC2(CC1)Oc1ccccc1-c1c2cnn1C , thanks.
Reply text: ≥ 5.70

Inquiry: pIC50 lookup needed for C[C@@](O)(CO)c1ccc(C(=O)N2CCC3(CC2)Oc2ccccc2-n2c(C#N)ccc23)cc1 , thanks.
Reply text: ≥ 5.70

====

TARGET OR TEST SYSTEM: human NaV 1.7 (Homo sapiens)
ASSAY NOTES: E-VIPR optical membrane potential assay with electrical stimulation
COND: sodium channel inhibition; read-out: Binned Activity Data (IC50)
MEASUREMENT NAME: IC50

Cn1ncc2c1-c1ccccc1OC21CCN(C(=O)c2nccc3ccccc23)CC1 : > 5000 nM

Inquiry: IC50 lookup needed for COc1cc(C(C)(C)O)ccc1C(=O)N1CCC2(CC1)Oc1ccccc1-n1c(C#N)ccc12 , thanks.
Reply text: ≤ 2000 nM

Inquiry: IC50 lookup needed for Cn1ncc2c1-c1ccccc1OC21CCN(C(=O)c2ccccc2OC(F)(F)F)CC1 , thanks.
Reply text: ≤ 2000 nM

Inquiry: IC50 lookup needed for COCCn1ccc(C(=O)N2CCC3(CC2)Oc2cc(Cl)ccc2-n2cccc23)cc1=O , thanks.
Reply text: ≤ 2000 nM

// provenance: patent US9365588B2
